# System: NCI-H226 lung
# method description: NCI-60 one-dose screen, 48 h
# condition notes: 10 µM unless noted
The panel holds about 83,000 compounds, 20% with a hit somewhere; the sample as a whole holds those more often. Calls of active or inactive are those of the source. The calls were made as follows: active = growth percent below 10; inactive = the rest.
The reply should name one outcome from active, inactive

- compound: "CO[C@@H]([CH2][Hg][S]C#N)[C@@H]([CH2][Hg][S]C#N)OC"
  assigned category: "inactive"

Problem: # lookup: test call for C=CC(O)CN1CC1CC (configuration not stated)
Solution: inactive

Problem: # lookup: test call for O=C(N/N=C/c1ccc(N(CCCl)CCCl)cc1)c1cc(=O)[nH]c(=O)[nH]1
Solution: active

Problem: # lookup: test call for CC1(CF)NC(=O)NC1=O (configuration not stated)
Solution: inactive

Problem: # lookup: test call for Nc1ccc(N)c2c1Oc1ccccc1O2
Solution: inactive

Problem: # lookup: test call for COP(=S)(OC)Oc1ccc(SC)c(C)c1
Solution: inactive

Problem: # lookup: test call for COC(=O)C(=[N+]=[N-])C(=O)OC
Solution: inactive

Problem: # lookup: test call for N#C[Se]CCCNS(=O)(=O)C1CC2C=CC1C2 (configuration not stated)
Solution: active

Problem: # lookup: test call for O=C(CCCN1CCC2(CC1)C(=O)NCN2c1ccc(F)cc1)c1ccc(F)cc1
Solution: inactive

Problem: # lookup: test call for COC(=O)C[Se]C(=O)c1ccccc1OC(C)=O
Solution: inactive

Problem: # lookup: test call for O=C1NC(=O)C(Cc2ccccc2)(Cc2ccccc2)C(=O)N1
Solution: inactive

Problem: # lookup: test call for C[C@]12CC[C@H](OC3OC(O)C(O)C(O)C3O)C=C1CCC1C2CC[C@]2(C)[C@@H](c3ccc(=O)oc3)CC[C@]12O (some centres not stated)
Solution: active

Sourced from PubChem BioAssay (NCI)
